measurement.name: melting point

                                   compound   result_value
0  CC(C)(C)Nc1cc(-c2ccnc(Nc3cccc(Cl)c3)n2)ccn1 [Compound 70]  125 to 126 °C
1  NNc1cc(-c2ccnc(Nc3cccc(Cl)c3)n2)ccn1 [Compound 22]  201 to 203 °C
2  Clc1cccc(Nc2nccc(-c3ccnc(N4CCOCC4)c3)n2)c1 [Compound 17]  175 to 176 °C
3  CCC(=O)Nc1cc(-c2ccnc(Nc3cccc(Cl)c3)n2)ccn1 [Compound 96]  215 to 216 °C
4  CN(C)c1cc(-c2ccnc(Nc3cccc(Cl)c3)n2)ccn1 [Compound 59]  178 to 179 °C

----------
We begin with a simple list: items and their reported melting point.
Where a name gives a salt, the structure may show the parent alone.
measurement.name: melting point

>>> df
                                   molecule   result_value
0       Nc1cc(-c2ccnc(Nc3cccc(Cl)c3)n2)ccn1  214 to 215 °C
1  CC(C)Nc1cc(-c2ccnc(Nc3cccc(Cl)c3)n2)ccn1 (as salt: HCl) [Compound 82]    88 to 89 °C
2      CNc1cc(-c2ccnc(Nc3cccc(Cl)c3)n2)ccn1  196 to 197 °C
3  O=C(Nc1cc(-c2ccnc(Nc3cccc(Cl)c3)n2)ccn1)C(F)(F)F  180 to 181 °C
4  Clc1cccc(Nc2nccc(-c3ccnc(N4CCNCC4)c3)n2)c1  103 to 104 °C
5     CCNc1cc(-c2ccnc(Nc3cccc(Cl)c3)n2)ccn1         201 °C
6  CC(=O)Nc1cc(-c2ccnc(Nc3cccc(Cl)c3)n2)ccn1  245 to 247 °C
7  CC(C)Nc1cc(-c2ccnc(Nc3cccc(Cl)c3)n2)ccn1 [Compound 68]  184 to 185 °C
8  FC(F)(F)CNc1cc(-c2ccnc(Nc3cccc(Cl)c3)n2)ccn1  222 to 223 °C

----------
# Test system: Septoria nodorum
# assay.details: Assay B-12: Effect against Septoria nodorum/wheat (Septoria leaf spot on wheat)
# Format: in vivo
# test.context: Parastagonospora nodorum, 264 h; Septoria nodorum on wheat cv. Arina; 0.02% active substance, spray; read-out: B12 activity
measurement.name: pest or weed control at 0.02 % strength

In [3]: df
Out[3]:
                            molecule_smiles                         measurement_name  result_value
0  CCC(=O)Nc1cc(-c2ccnc(Nc3cccc(Cl)c3)n2)ccn1  pest or weed control at 0.02 % strength         > 70%
1   CN(C)c1cc(-c2ccnc(Nc3cccc(Cl)c3)n2)ccn1  pest or weed control at 0.02 % strength         > 70%
2     CCNc1cc(-c2ccnc(Nc3cccc(Cl)c3)n2)ccn1  pest or weed control at 0.02 % strength         > 70%
3  O=C(Nc1cc(-c2ccnc(Nc3cccc(Cl)c3)n2)ccn1)C(F)(F)F  pest or weed control at 0.02 % strength         > 70%
